These data points were gathered from PubChem BioAssay (NCI).

System: TK-10 renal
Experiment: NCI tumour cell line growth inhibition, 48 h
Observable: log10 of TGI (log10 of the value in µM)
Recorded TGI (log10, µM)

Quick note, log10 of TGI for COc1ccc(NC(=O)CSc2nnc(-c3ccc(NC(C)=O)cc3)o2)cc1 landed at 1.61

Form: compound = CCCCOCCOC1=C(Cl)C(=O)c2c(O)ccc(O)c2C1=O ; log10 of TGI = 0.26

log10 of TGI in this record for O=C1c2cccc3cccc(c23)C(=O)N1CCN(CCO)CCO : 1.79

Form field log10 of TGI, entry CCOC(=O)C(Br)=C1OC(=O)c2ccccc2-c2ccccc21 (mixture of isomers) : 1.69

Item: c1ccc(C(C(=Nc2ccc(Cc3ccc(N=C(C(c4ccccc4)c4ccccc4)N4CC4)cc3)cc2)N2CC2)c2ccccc2)cc1 | log10 of TGI: 1.54

Form field log10 of TGI, entry CNCCCNc1ccnc2cc(Cl)ccc12 : 1.74

Measured log10 of TGI of CCSc1nc(N=Cc2ccccc2O)c2cn[nH]c2n1 : 1.56

log10 of TGI reported for this compound CCCN(CCC)c1c([N+](=O)[O-])cc(C(=O)N(CC)CC)cc1[N+](=O)[O-] : 1.89

Documented log10 of TGI of CCOC(=O)c1c(C)c2c(n1Cc1ccccc1)CSCC2=O : 1.91

###

System: HCT-15 colon
Assay: NCI tumour cell line growth inhibition, 48 h
Provide the reported TGI of each item.
Report only the number, with the unit µM understood.

// TGI lookup, molecule = O=C1c2cccc3cccc(c23)C(=O)N1CCCNCCCCNCCCNCCCN1C(=O)c2cccc3cccc(c23)C1=O , result: 28.1

Just so you know, measured TGI for COC(=O)c1c2c(c(C)[n+]([O-])c1C)C(=O)C(NCc1ccc(Br)cc1)=CC2=O came out at 3.91

###

System: MALME-3M melanoma
Assay: NCI tumour cell line growth inhibition, 48 h
Where a SMILES comes first, the peptide text is derived from it. The star is where a group is joined. Palmitoyl = CCCCCCCCCCCCCCCC(=O)*
Observable: GI50

Reported GI50 of CCCCCCCCCCCCCCCC(=O)N1CCCC1C(=O)NCC(=O)NC(Cc1ccccc1)C(=O)N1CCCC1C(=O)NC(CO)C(=O)NC(Cc1ccc(O)cc1)C(=O)NC(CCCCN)C(=O)NC(CC(C)C)C(=O)NC(CCCN=C(N)N)C(=O)N1CCCC1C(=O)NCC(N)=O (stereo unspecified) (Palmitoyl-PGFPSYKLRPG-NH2; configuration not given here) : 450 nM

Form field GI50, entry N#CC(I)CS(=O)(=O)c1ccccc1 (stereo unspecified) : 2130 nM

The value of GI50 measured for the compound CCCCNCCCNCCCNC(=O)c1csc(-c2csc(CCNC(=O)C(NC(=O)C(C)C(O)C(C)NC(=O)C(NC(=O)c3nc(C(CC(N)=O)NCC(N)C(N)=O)nc(N)c3C)C(OC3OC(CO)C(O)C(O)C3OC3OC(CO)C(O)C(OC(N)=O)C3O)c3cnc[nH]3)C(C)O)n2)n1 (stereo unspecified) turned out to be 697 nM

The reported value for NNc1ncnc2nc[nH]c12 in terms of GI50 is 28600 nM

Reported GI50 ( C=C(C)[C@@H]1CC[C@]2(CN)CC[C@]3(C)[C@H](CC[C@@H]4[C@@]5(C)CCCNC(C)(C)[C@@H]5CC[C@]43C)[C@@H]12 ) = 1750 nM

The compound listed as NC(=O)c1cc(I)ccc1NC(=O)/C=C/c1ccccc1 has a reported GI50 of 2100 nM

###

Tested on: NCI-H460 lung
Test: NCI tumour cell line growth inhibition, 48 h
Record form. Attribute: TGI. Fill in for each entry.

Input O=c1[nH]c(-c2cccc(F)c2)cc2cc(F)ccc12 . Output TGI: > 100 µM

Lab note: measured TGI of CCSc1nc(N=Cc2ccccc2O)c2cn[nH]c2n1 was > 100 µM

The molecule listed as NCCCn1c2c(c3ccc([N+](=O)[O-])cc3c1=O)C(=O)c1cc(I)ccc1-2 has a reported TGI of 1.31 µM

Reported TGI for CC(C)Oc1cccc(N2C(=NCc3c[nH]c4ccccc34)Nc3ccncc3S2(=O)=O)c1 was 77.6 µM

get_value(item= Nc1ncc2c(n1)-c1ccccc1OC2N1CCCC1 (stereo unspecified) , readout=TGI) returns > 100 µM

The recorded TGI for O=C(O)C(O)C(O)C(O)C(O)CO (stereo unspecified) is > 100 µM

###

Tested on: PC-3 prostate
Assay: NCI tumour cell line growth inhibition, 48 h
Provide the recorded TGI for the entries that follow.
State just the number; it will be interpreted in µM.

TGI measured on C=CCn1c(=O)ccn(/C(=C/C(=O)OCC)C(=O)OCC)c1=O = 27.9

Looking up C=C(C)[C@@H]1CC[C@]2(CN)CC[C@]3(C)[C@H](CC[C@@H]4[C@@]5(C)CCCNC(C)(C)[C@@H]5CC[C@]43C)[C@@H]12 , I found its TGI recorded as 3.2

###

Test system: OVCAR-3 ovarian
Assay: NCI tumour cell line growth inhibition, 48 h
Observable: TGI

Form field TGI, entry COc1cc(O)c2c(=O)c(OC)c(-c3ccc(OC)c(O)c3)oc2c1 : > 100 µM

Note to self: TGI recorded for [N-]=[N+]=NC1(c2ccccc2)C(=O)c2cccc3c2N(CCC3)C1=O (stereo not given) was > 100 µM

TGI recorded for this compound, NC(N)=Nc1nc2ccccc2o1 , is > 100 µM

Briefly, TGI measured for COc1ccc(Cl)cc1NC(=O)c1ccc(NC2=C(Cl)C(=O)N(Cc3ccccc3)C2=O)cc1 : > 100 µM

In plain terms, CCCCCCCCSC1=C(Cl)C(=O)C(OC)=C(OC)C1=O has a documented TGI of 23.8 µM

Summary for this compound, C/C(=N\NC(N)=O)c1sc(-c2nc(C)c(/C(C)=N/NC(N)=O)s2)nc1C : TGI is > 100 µM

Noted for CC[C@]1(O)C[C@H]2CN(CCc3c([nH]c4ccccc34)C(C(=O)OC)(c3cc4c(cc3OC)N(C)[C@H]3[C@@](O)(C(=O)OC)[C@H](OC(C)=O)[C@]5(CC)[C@@H]6C[C@@H]6CN6CC[C@]43[C@@H]65)C2)C1 (stereo not given in full) : its TGI reads 0.00945 µM

For record Clc1ccc(C=NC23CC4CC(CC(C4)C2)C3)c(Cl)c1 the listed TGI is > 10 µM

The compound listed as Cc1nc2ccccc2c(-n2cccn2)c1CCn1cccn1 shows TGI equal to > 100 µM

Form field TGI, entry CC1=C(C(=O)Nc2ccccc2)C(c2ccc(Cl)c(Cl)c2)C(C(=O)Nc2ccccc2)=C(C)N1 : 25.3 µM

// TGI lookup, compound = COc1ccc(CNc2c3ccccc3nc3ccccc23)cc1F , result: 13.3 µM

Short answer for COc1cccc2c1OC(c1cccc3ccccc13)C([N+](=O)[O-])=C2 (stereo not given) : TGI was 2.74 µM

get_value(item= COc1ccc(/C=C\c2cc(OC)c(OC)c(OC)c2)cc1OCC(=O)O , readout=TGI) returns 8.25 µM

For this compound ( O=c1cccc(C#CC#C[C@@H]2O[C@H]2CO)o1 ), measured TGI is 3.69 µM

The value of TGI measured for the compound CN(C)CCN1CCC(Cc2ccccc2)CC1 turned out to be > 80 µM

Reported TGI of CNc1[nH]c(=S)nc2sc3c(c12)CCCC3 : > 75 µM

Measured TGI of COC(=N)c1csc(C2OC(CO)C(O)C2O)n1 (stereo not given) : > 100 µM

GET /value?item= Nc1ncc2c(n1)-c1ccccc1OC2N1CCCC1 (stereo not given) &field=TGI returns > 100 µM

Briefly, TGI measured for COc1cc(C=O)ccc1O : > 100 µM

The reported TGI of the compound O=S(=O)(OI(OI(OS(=O)(=O)C(F)(F)F)c1ccccc1)c1ccccc1)C(F)(F)F was > 100 µM

get_value(item= Cc1c2c(c(C)n1-c1ccccc1)C(=O)N(CCN1CCN(c3cccc(C(F)(F)F)c3)CC1)C2=O , readout=TGI) returns > 100 µM

Entry under test: O=C(Nc1ncc(Cc2cccc(C(F)(F)F)c2)s1)c1ccc2c(c1)OCCO2 . Its TGI was 0.629 µM

The recorded TGI for O=C(c1ccc([N+](=O)[O-])cc1[N+](=O)[O-])N(/N=C/C=C/c1ccccc1)c1nnc(-c2ccccc2)c(-c2ccccc2)n1 is > 100 µM

Data point: COc1nc(=O)n(C2C=CC(=O)O2)cc1F (stereo not given) ; TGI = 11.2 µM

Measured TGI of O=C(CC(=O)Nc1ccccc1)NNC(Sc1ccccc1)c1cc(N=Nc2ccc(Br)cc2)ccc1O (stereo not given) : > 10 µM

compound CN1Cc2c(nc(-c3ccccc3)c[n+]2[O-])N(C)C1 , TGI observed: > 100 µM

response.value for CCSc1nc(N=Cc2ccccc2O)c2cn[nH]c2n1 (field: TGI) = 61.2 µM

Data point: CC(C)Oc1cccc(N2C(=NCc3c[nH]c4ccccc34)Nc3ccncc3S2(=O)=O)c1 ; TGI = 56.1 µM

For reference, reported TGI for CN1CC[C@]2(c3cccc(O)c3)CC(=O)/C(=C/c3ccccc3)[C@@H]1C2 stands at 4.43 µM

According to the records, this compound O=C1c2cccc3cccc(c23)C(=O)N1CCCNCCCCNCCCNCCCN1C(=O)c2cccc3cccc(c23)C1=O displays TGI of 2.12 µM

For CC1(C)CCc2c(ccc(C(=O)/C=C/c3ccc(O)cc3)c2O)O1 the compound record lists TGI as 18.3 µM

Entry under test: O=C1NC(O)CCN1C1OC(CO)C(O)C1O (stereo not given) . Its TGI was > 250 µM

Reported TGI of O=C1N(Cc2ccccc2)C2CSCC2N1Cc1ccccc1 (stereo not given) : 43.9 µM

Consider COc1cc(C[P+](c2ccccc2)(c2ccccc2)c2ccccc2)cc(OC)c1OC . Its measured TGI is > 100 µM

// CCN(Cc1c(F)cccc1OC)c1ccc(CO)c(Cl)c1 : TGI value = 1.81 µM
